Test system: SN12C renal
Assay explanation: NCI-60 one-dose screen, 48 h
Condition set: 10 µM unless noted
The panel holds about 83,000 compounds, 20% with a hit somewhere; the sample as a whole holds those more often. Calls of active or inactive are those of the source. The calls were made as follows: active = growth percent below 10; inactive = the rest.
Outcome codes: active, inactive

# Compound, Class name
data = [
    ("Cc1ccc(C(NC(=O)c2ccccc2)c2ccc3cccnc3c2O)cc1 (configuration not stated)", "inactive"),
    ("CC(NNC(=S)N1CCCCCC1)c1ccc2ccccc2n1 (configuration not stated)", "inactive"),
    ("C=C1CCC2C(C)(COC(=O)CC)C(OC(=O)CC)CCC2(C)C1C/C=C1/C(=O)OCC1OC(=O)CC (configuration not stated)", "active"),
    ("O=Nc1c2cccnc2n2nnc3ccc(Cl)cc3c12", "inactive"),
    ("Cc1ccc(/C=C/C(=O)c2ccc(F)cc2)s1", "inactive"),
    ("C#C[C@]1(O)CCC2C3CCc4cc(O)ccc4C3CC[C@@]21C (some centres not stated)", "inactive"),
    ("CC12CCC3C(=CCc4cc(O)ccc43)C1CCC2=O (configuration not stated)", "inactive"),
    ("O=C(Nc1ccc(Cl)cc1)Nc1nc2ccc(OC(F)(F)F)cc2o1", "inactive"),
    ("N#Cc1ccc(-c2csc(Nc3ccc4nc5n(c(=O)c4c3)CCC5)n2)cc1", "inactive"),
    ("COC(=O)[C@H](Cc1cn(C)cn1)NC(=O)[C@H](Cc1ccccc1)NC(=O)Nc1cc(C(F)(F)F)cc(C(F)(F)F)c1", "active"),
    ("CC1C(=O)NC2=Nc3ccccc3C(=O)NN21 (configuration not stated)", "inactive"),
    ("C[C@@H]1CN(c2nc3c(cc2F)c(=O)c(C(=O)O)cn3C(C)(C)C)C[C@H](C)N1", "inactive"),
    ("O=C(COc1ccc(/C=C2\\Oc3ccc4ccccc4c3C2=O)cc1)c1ccc(Cl)cc1", "inactive"),
    ("COP(=O)(OC)C(c1ccc(O)cc1)(c1ccc(O)cc1)c1ccc(O)cc1", "inactive"),
    ("CC(=O)N1N=C(c2ccc(C(F)(F)F)cc2)CC1c1ccc2c(c1)OCO2 (configuration not stated)", "inactive"),
    ("c1ccc(CN=C(NCc2ccccc2)NCc2ccccc2)cc1", "inactive"),
    ("O=c1[nH]c(SCc2ccccc2)nc2nc(Nc3ccc(NC(=S)Nc4ccccc4)cc3)nc(-c3ccc(O)cc3O)c12", "inactive"),
    ("COc1ccc(CC(=O)Nc2nn3c(-c4cc(C(F)(F)F)cc(C(F)(F)F)c4)nnc3s2)cc1", "inactive"),
    ("COc1ccc2cc(-c3nc4ccccc4[nH]3)c(=O)oc2c1", "inactive"),
    ("O=C1NC(=O)/C(=C/c2ccc(Cl)cc2Cl)N1", "inactive"),
    ("CCOC(=O)/C=C1/SC(=Nc2ccc(C#N)cc2)N(Cc2ccco2)C1=O", "inactive"),
    ("CCCCCCCCCCOC(C)=O", "inactive"),
    ("Nc1ccc2c(c1Br)Cc1ccccc1-2", "inactive"),
    ("O=c1ncc(-c2ccc(C(F)(F)F)cc2)c(NC2CCCCCC2)[nH]1", "inactive"),
    ("O=C(CC1Sc2ccccc2NC1=O)NNc1cccc(Cl)c1Cl (configuration not stated)", "inactive"),
    ("FC(F)(F)c1cc(-c2nnc3n2N=C(N2CCCC2)CS3)cc(C(F)(F)F)c1", "inactive"),
    ("CC[C@H]1CN2CCc3cc(OC)c(OC)cc3C2C[C@@H]1CC1NCCc2cc(OC)c(OC)cc21 (some centres not stated)", "active"),
    ("O=C(CNC(=O)c1cccc2ccccc12)Nc1ccccc1Oc1ccc(O)cc1", "inactive"),
    ("CCCCCc1c(C)[nH]c(/C=C2\\N=C(c3ccc[nH]3)C=C2OCc2ccccc2)c1C", "active"),
    ("O=C(Nc1cccc(-n2cc(-c3ccncc3)c(-c3cc(O)cc(Cl)c3)n2)c1)Nc1ccc(Cl)c(Cl)c1", "inactive"),
    ("O=C(Nc1nc2c(C(F)(F)F)cccc2s1)c1cc(Cl)ccc1O", "active"),
    ("Cc1c2oc3c(C)ccc(C(=O)OC(C)C4NC(=O)C(C(C)C)N(C)C(=O)CN(C)C(=O)C5CCCN5C(=O)C(C(C)C)NC4=O)c3nc-2c(C(=O)OC(C)C2NC(=O)C(C(C)C)N(C)C(=O)CN(C)C(=O)C3CCCN3C(=O)C(C(C)C)NC2=O)c(N)c1=O (configuration not stated)", "active"),
]

====

System: HCT-15 colon
Assay explanation: NCI-60 one-dose screen, 48 h
Condition set: 10 µM unless noted
This is part of a sample that, as a whole, favours compounds with a hit. Of some 83,000 tested, about 20% had one in any assay. The source made the active and inactive calls. How the source made its calls: active means growth percent below 10; inactive means the rest.
Outcomes: active, inactive

# Compound, Class name
rows = [
    ("O=C(COc1cccc(/C=C2\\Cc3ccccc3C2=O)c1)c1ccc(Cl)cc1", "inactive"),
    ("CC(=O)N1N=C(c2ccc(Nc3nc(NCCO)nc(NCCO)n3)cc2)CC1c1ccc(Cl)cc1 (stereo not given)", "inactive"),
    ("C/C=C(/C(=C/C)c1ccc(O)cc1)c1ccc(O)cc1", "inactive"),
    ("COc1ccc(-c2c3c(N)nc(-c4ccncc4)nc3nc3c2c(C)nn3-c2ccccc2)cc1", "inactive"),
    ("CC(=O)Nc1c(Cl)cc2c(c1Cl)Cc1ccccc1-2", "inactive"),
    ("CC(=O)c1nn(-c2ccccc2)c(=Nc2ccccc2)cc1C", "inactive"),
    ("COc1cc(/C=C2\\CN(S(=O)(=O)c3ccc(C)cc3)C/C(=C\\c3cc(CN4CCOCC4)c(O)c(OC)c3)C2=O)cc(CN2CCOCC2)c1O", "active"),
    ("COc1ccc(-c2ccc(O)c(C(=O)/C=C/c3cc(OC)c(OC)c(OC)c3)c2)cc1", "inactive"),
    ("O=c1c2c(=NCCCN3CCCC3)cc3c(=O)n(CCCN4CCCC4)c(=O)c4c(NCCCN5CCCC5)cc(c(O)n1CCCN1CCCC1)c2c4-3", "inactive"),
    ("Cc1cc(Cl)ccc1Nc1nc(C(F)(F)F)ccc1C(=O)N/N=C/c1ccc(Cl)cc1", "active"),
    ("COc1ccc(C(=O)COc2cccc(/C=C3\\COc4ccc5ccccc5c4C3=O)c2)cc1", "inactive"),
    ("Cn1c(N2N=C(c3ccc(Cl)cc3)CC2c2ccccc2)nc(-c2ccccc2)c(C#N)c1=O (stereo not given)", "inactive"),
    ("CCSc1nc(-c2ccco2)n2nc(-c3ccco3)cc2n1", "inactive"),
    ("NS(=O)(=O)c1cc(C2(O)NC(=O)c3ccccc32)ccc1Cl (stereo not given)", "inactive"),
    ("Cc1cc(C)cc(S(=O)(=O)n2ccc(-c3ccc4c(c3)CCC(C)(C)O4)n2)c1", "inactive"),
    ("Cc1cc(C(=O)Nc2ccc3cc(CN4CCOCC4)ccc3n2)c(C)n1-c1ccccc1", "inactive"),
    ("CCOc1nc(-c2ccco2)n2nc(-c3ccco3)cc2n1", "inactive"),
    ("COC(=O)[C@H](Cc1cnc[nH]1)NC(=O)[C@@H](NC(=O)Nc1cc(C(F)(F)F)cc(C(F)(F)F)c1)C(C)C", "inactive"),
    ("C/C(=C\\CCc1ccoc1)CC/C=C(\\C)CCCNc1ccc(F)cc1", "inactive"),
    ("COc1ccc(/C=C2/SC(=Nc3c(C)nn(-c4ccccc4)c3N)NC2=O)cc1", "inactive"),
    ("O=C(Oc1ccccc1)C(Br)C(Br)c1ccccc1 (stereo not given)", "inactive"),
    ("C1=C(Cc2ccccc2)n2cnc3ncnc(c32)S1", "inactive"),
    ("CCOC(=O)/C=C1/SC(=Nc2ccc(C#N)cc2)N(Cc2ccco2)C1=O", "active"),
    ("CC(=O)N1N=C(c2ccc(Nc3ccnc4cc(Cl)ccc34)cc2)CC1c1ccc(Cl)cc1 (stereo not given)", "inactive"),
    ("Oc1c(N=Nc2nn[nH]n2)ccc2ccccc12", "inactive"),
]

====

Tested on: SF-295 CNS
Assay explanation: NCI-60 one-dose screen, 48 h
Condition set: 10 µM unless noted
This is part of a sample that, as a whole, favours compounds with a hit. Of some 83,000 tested, about 20% had one in any assay. Active and inactive are the calls of the source. The calls were made as follows: active = growth percent below 10; inactive = the rest.
Labels: active, inactive

# Compound, Class name
records = [
    ("Clc1ccc2nc(CI)c(CI)nc2c1", "inactive"),
    ("O=C1C=CC(=O)N1c1ccccc1N1C(=O)C=CC1=O", "inactive"),
    ("COc1cc(/C=N/NC(=O)c2ccc(C(F)(F)F)nc2Nc2ccc(Cl)cc2C)ccc1O", "active"),
    ("O=C1/C(=C/c2ccc(F)cc2)Cc2ccccc21", "inactive"),
    ("COc1ccccc1-n1c(-c2ccc(O)cc2C)cn2c3c(=O)[nH]c(=O)n(C)c3nc12", "inactive"),
    ("O=C(CSc1nnc(-c2cc(-c3ccccc3)nc3ccccc23)o1)c1ccc(Br)cc1", "inactive"),
    ("N[C@H](CS)C(=O)O", "inactive"),
    ("Cn1cc(NC(=O)Nc2cc(C(=O)O)n(C)c2)cc1C(=O)O", "inactive"),
    ("COc1ccc(CCN2C(=O)CCC3=C2CCCC3=O)cc1OC", "inactive"),
    ("CCSc1nc(-c2ccc(F)cc2)c(C#N)c(=O)[nH]1", "inactive"),
    ("COc1cc(C2CC(C3C(=O)N(C)C(=O)N(C)C3=O)=NN2C=O)cc(OC)c1OC (configuration not stated)", "inactive"),
    ("O=C1NCCc2c1noc2-c1ccccc1", "inactive"),
    ("N#Cc1c(-c2ccc(F)cc2)n2c(nc1=O)SC(=O)C2=O", "inactive"),
    ("CCN(CC)CCSc1ncnc2c1cnn2-c1ccc(S(N)(=O)=O)cc1", "inactive"),
    ("COc1cc(/C=C/c2cc(/C=C/c3ccc(O)c(OC)c3)n(C(=O)Cc3ccccc3)n2)ccc1O", "active"),
    ("CNCCCn1c2c(c3ccc(F)cc3c1=O)C(=O)c1cc(OC)cnc1-2", "active"),
    ("O=C(NN1C(=O)c2cc(C(=O)O)c(C(=O)O)cc2C1=O)c1ccncc1", "inactive"),
    ("O=c1sc2ncnc3ncn1c32", "inactive"),
    ("COc1ccc(Cl)cc1Nc1nc(C(F)(F)F)ccc1C(=O)N/N=C/c1c(Cl)cccc1Cl", "inactive"),
    ("C[C@@H]1[C@H]2[C@H](C=C3[C@@H]4CC[C@H]5Cc6nc7c(nc6C[C@]5(C)[C@H]4C[C@@H](O)[C@@]32C)C[C@@H]2CC[C@H]3C4=C[C@@H]5O[C@@]6(CC[C@](C)(CO)O6)[C@@H](C)[C@@]5(O)[C@@]4(C)[C@H](O)C[C@@H]3[C@@]2(C)C7)O[C@]12CCC(C)(C)O2", "active"),
    ("Cc1cc(=O)[nH]c(/C(=N/Nc2ccccc2)C(=O)c2ccc(Cl)cc2)n1", "inactive"),
    ("O=C(Nc1ccccc1)c1cc(-n2cnc([N+](=O)[O-])c2)cc(-n2cnc([N+](=O)[O-])c2)n1", "inactive"),
    ("O=C(COc1cccc(/C=C2\\Cc3ccccc3C2=O)c1)c1ccc(Cl)cc1", "inactive"),
    ("Cc1ccc(S(=O)(=O)NCCN2c3nc4ccccc4cc3Sc3cc4ccccc4nc32)cc1", "inactive"),
    ("COc1cc(-c2n[nH]nc2-c2ccccn2)cc(OC)c1OC", "inactive"),
    ("O=C(C(=O)c1cc(Br)ccc1O)c1cc(Br)ccc1O", "inactive"),
    ("O=C1C2C(C(=O)N1CC[Se][Se]CCN1C(=O)C3C(C1=O)[C@H]1C=C[C@@H]3C1)[C@H]1C=C[C@@H]2C1 (some centres not stated)", "active"),
    ("C[C@H](C(=O)N[C@@H](Cc1ccc(-c2ccccc2)cc1)C(=O)NC1CC(C)(C)NC(C)(C)C1)c1ccc(-c2ccccc2)c(F)c1", "active"),
    ("Cc1ccc(-c2cc(-c3ccccc3)n(-c3ccccc3)n2)cc1", "inactive"),
    ("COc1cccc(/C=N/Nc2nc3ccccc3s2)c1OC", "inactive"),
    ("O=C(/C=C/c1cccc(O)c1)c1cccc(-n2cc(-c3ccccc3)[nH]c2=O)c1", "inactive"),
    ("O=C(/C=C/c1ccc([N+](=O)[O-])cc1)c1ccc2c3c(cccc13)CC2", "active"),
    ("NC(=O)NC1(C(=O)O)CCCC1", "inactive"),
    ("Nc1ccc(N=Nc2ccccc2)cc1[N+](=O)[O-]", "inactive"),
    ("CC(C)N(Cc1ccccc1)c1c(S)ssc1=S", "active"),
    ("Cc1cc(C)c(C(=O)c2cccs2)c(C)c1", "inactive"),
    ("COc1cc(C2CC(c3ccc(C)cc3)=NN2C=O)ccc1OCCN(C)C (configuration not stated)", "inactive"),
    ("COC(=O)[C@H](Cc1cn(C)cn1)NC(=O)[C@@H](NC(=O)Nc1cc(C(F)(F)F)cc(C(F)(F)F)c1)C(C)C", "active"),
    ("CC(C)C[C@H](NC(=O)/C=C/Cn1ccc2ccccc2c1=O)B(O)O", "inactive"),
    ("CN(C)c1ncnc2c1ncn2C1CCCCO1 (configuration not stated)", "inactive"),
    ("CN1C(=O)C(C2=NN(C=O)C(c3ccc(F)cc3)C2)C(=O)N(C)C1=O (configuration not stated)", "inactive"),
    ("CN1CCN(CCCOc2ccc3ncnc(Nc4ccc(OCc5cccc(F)c5)c(Cl)c4)c3c2)CC1", "active"),
]
